Test protocol: in vivo
Assay setup: female, ICR, mouse, iv, Vss, plasma, single IV, I5 200 mg/kg, dexamethasone sodium phosphate 40 mg/kg
Property name: Vd (L/kg)
Answers are plain numbers, in L/kg.

Problem: // Input: C[C@@H]1C[C@H]2[C@@H]3CCC4=C/C(=N/OCCCO[C@H]5O[C@H](CO)[C@@H](O)[C@H](O)[C@@H]5O)C=C[C@]4(C)[C@@]3(F)[C@@H](O)C[C@]2(C)[C@@]1(O)C(=O)CO [Compound I5] . Output its Vd only.
Solution: 12.1

* * *

Test protocol: in vivo
Assay setup: female, ICR, mouse, iv, terminal elimination half-life in plasma, mice after IV dosing
Property name: half-life

Problem: // Input: `C[C@@H]1C[C@H]2[C@@H]3CCC4=C/C(=N/OCCCO[C@H]5O[C@H](CO)[C@@H](O)[C@H](O)[C@@H]5O)C=C[C@]4(C)[C@@]3(F)[C@@H](O)C[C@]2(C)[C@@]1(O)C(=O)CO` . Output its half-life only.
Solution: ~4.2 h

* * *

Test protocol: in vivo
Assay setup: female, ICR, mouse, iv, T½, plasma, single IV, I5 200 mg/kg, dexamethasone sodium phosphate 40 mg/kg, table PK parameters in plasma
Property name: half-life (h)
Answers are plain numbers, in h.

Problem: // Input: `C[C@@H]1C[C@H]2[C@@H]3CCC4=C/C(=N/OCCCO[C@H]5O[C@H](CO)[C@@H](O)[C@H](O)[C@@H]5O)C=C[C@]4(C)[C@@]3(F)[C@@H](O)C[C@]2(C)[C@@]1(O)C(=O)CO` . Output its half-life only.
Solution: 4.23

* * *

Test protocol: in vivo
Assay setup: female, ICR, mouse, iv, Vz, plasma, single IV, I5 200 mg/kg, dexamethasone sodium phosphate 40 mg/kg
Property name: Vd (L/kg)
One number for each entry, in L/kg.

Problem: // Input: `C[C@@H]1C[C@H]2[C@@H]3CCC4=C/C(=N/OCCCO[C@H]5O[C@H](CO)[C@@H](O)[C@H](O)[C@@H]5O)C=C[C@]4(C)[C@@]3(F)[C@@H](O)C[C@]2(C)[C@@]1(O)C(=O)CO` . Output its Vd only.
Solution: 65.3
